# TARGET ENTITY: cynomolgus TCRvβ (BJM0847) (cynomolgus)
# ASSAY TEXT: SPR (Biacore): antibody captured on Protein L chip, BJM0847 as analyte, 1:1 fit
Entries annotated with measured pKd
Recall that pKd is obtained by taking minus log10 of the concentration measured in molar.

Previously resolved entries follow.
A-H.62 (scFv) scFv: QVQLVQSGAEVKKPGSSVKVSCKASGHDFRLTYIHWVRQAPGQGLEWMGRVSAGSGNVKYNEKFKGRVTITADTSTSTAYMELSSLRSEDTAVYYCAVSYYSYDVLDYWGQGTTVTVSSGGGGSGGGGSGGGGSGGGGSDIQMTQSPSFLSASVGDRVTITCKASQNVADRVVWHQQKPGKAPKALIYSSSHRYKGVPSRFSGSGSGTEFTLTISSLQPEDFATYFCQQFKSYPLTFGQGTKLEIK: 9.12
BJM0502 (scFv, part only; not given: Fc scaffold making it bivalent, part only) scFv, part: QVQLVQSGAEVKKPGSSVKVSCKASGHDFHLWYIHWVRQAPGQGLEWMGRVSAGSGNVKYNEKFKGRVTITADTSTSTAYMELSSLRSEDTAVYYCAGSYYSYDVLDYWGQGTTVTVSSGGGGSGGGGSGGGGSGGGGSDIQMTQSPSFLSASVGDRVTITCKASQNVDNKVAWHQQKPGKAPKALIYSSSHRYKGVPSRFSGSGSGTEFTLTISSLQPEDFATYFCQQFKSYPLTFGQGTKLEIK: 6.41
A-H.61 (scFv) scFv: QVQLVQSGAEVKKPGSSVKVSCKASGHDFKLTYIHWVRQAPGQGLEWMGRVSAGSGNTKYNEKFKGRVTITADTSTSTAYMELSSLRSEDTAVYYCAVSYYSYDVLDYWGQGTTVTVSSGGGGSGGGGSGGGGSGGGGSDIQMTQSPSFLSASVGDRVTITCKASQNVDNRVAWHQQKPGKAPKALIYSSSHRYKGVPSRFSGSGSGTEFTLTISSLQPEDFATYFCQQFKSYPLTFGQGTKLEIK: 9.22
BJM0897 (antibody, V domains shown) VH: QVQLVQSGAEVKKPGSSVKVSCKASGTDFKLTYIHWVRQAPGQGLEWMGRIFPGSGNVKYNEKFKGRVTITADTSTSTAYMELSSLRSEDTAVYYCAGSYYSYDVLDYWGQGTTVTVSS VL: DIQMTQSPSFLSASVGDRVTITCKASQNVDNRVAWYQQKPGKAPKALIYSSSHRYKGVPSRFSGSGSGTEFTLTISSLQPEDFATYFCQQFKSYPLTFGQGTKLEIK: 7.16

*Q* Quote pKd reported for BJM0501 (scFv, part only; not given: Fc scaffold making it bivalent, part only) scFv, part: QVQLVQSGAEVKKPGSSVKVSCKASGHDFRLTYIHWVRQAPGQGLEWMGRISAGSGNVKYNEKFKGRVTITADTSTSTAYMELSSLRSEDTAVYYCAGSYYSYDVLDYWGQGTTVTVSSGGGGSGGGGSGGGGSGGGGSDIQMTQSPSFLSASVGDRVTITCKASQNVADRVAWYQQKPGKAPKALIYSSSHRYKGVPSRFSGSGSGTEFTLTISSLQPEDFATYFCQQFKSYPLTFGQGTKLEIK please.
*A* 7.06

*Q* Quote pKd reported for BJM0912 (antibody, V domains shown) VH: QVQLVQSGAEVKKPGSSVKVSCKASGHDFHLWYIHWVRQAPGQGLEWMGRVSAGSGNVKYNEKFKGRVTITADTSTSTAYMELSSLRSEDTAVYYCAGSYYSYDVLDYWGQGTTVTVSS VL: DIQMTQSPSFLSASVGDRVTITCKASQNVDNKVAWHQQKPGKAPKALIYSSSHRYKGVPSRFSGSGSGTEFTLTISSLQPEDFATYFCQQFKSYPLTFGQGTKLEIK please.
*A* 6.49
